Each record here notes measured MIC80.
Test system: Candida albicans
Assay: Anti-fungal data: Candida albicans
Assay type: cell-based
Conditions: strain A39
# number only, unit µg/mL dropped from output

Example entries and their recorded answers appear below.
CC(C)NC(=N)c1ccc(OCCCOc2ccc(-c3cc4cc(C(=N)NC(C)C)ccc4o3)cc2)cc1.Cl.Cl = 10
Cl.Cl.N=C(N)c1ccc(OCCCCCOc2ccc(-c3cc4cc(C(=N)N)ccc4o3)cc2)cc1 = 0.39

Query :: # input compound: Cl.Cl.c1cc(C2=NCCN2)ccc1OCCCCOc1ccc(-c2cc3cc(C4=NCCN4)ccc3o2)cc1 ; wanted: its MIC80
Result :: 100

Query :: Ok, now Cl.Cl.c1cc(OCCCCCCOc2ccc(C3=NCCN3)cc2)cc(-c2cc3ccc(C4=NCCN4)cc3o2)c1
Result :: 1.56
